Test system: LG0567-F671-PDC complex spheroids viability;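 note: spheroids exposed to compound for seven days before readout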
Experiment: Anticancer human tumor LG0567-F671-PDC patient-derived lung adenocarcinoma cell line growth inhibition [RAS]
Conditions: second compound 10 µM; first compound 1 µM; active compounds read low
Quick list: viability, T/C per entry.

# COMPOUND, UNIT TAG, viability, T/C
records = [
    ("CC1(O)CCCC1n1c(=O)c(C(F)F)cc2cnc(NC3CCN(S(C)(=O)=O)CC3)nc21 (centres undefined) + C#Cc1c(F)ccc2cc(O)cc(-c3ncc4c(N5CC6CCC(C5)N6)nc(OCC56CCCN5CC(F)C6)nc4c3F)c12", "%", 18.5),
    ("CC(Nc1ccc2c(c1)OCCn1cc(N3C(=O)OCC3C(F)F)nc1-2)C(N)=O (centres undefined) + C#Cc1c(F)ccc2cc(O)cc(-c3ncc4c(N5CC6CCC(C5)N6)nc(OCC56CCCN5CC(F)C6)nc4c3F)c12", "%", 5.21),
    ("O=C(c1ccc(F)c(F)c1Nc1ccc(I)cc1F)N1CC(O)([C@@H]2CCCCN2)C1 + C#Cc1c(F)ccc2cc(O)cc(-c3ncc4c(N5CC6CCC(C5)N6)nc(OCC56CCCN5CC(F)C6)nc4c3F)c12", "%", 1.49),
    ("C[C@@H](NC(=O)c1ncnc(N)c1Cl)c1ncc(C(=O)Nc2cc(C(F)(F)F)c(Cl)cn2)s1 + C#Cc1c(F)ccc2cc(O)cc(-c3ncc4c(N5CC6CCC(C5)N6)nc(OCC56CCCN5CC(F)C6)nc4c3F)c12", "%", 19.4),
    ("CC(=O)OC12COC1CC(O)C1(C)C(=O)C(O)C3=C(C)C(OC(=O)C(O)C(NC(=O)OC(C)(C)C)c4ccccc4)CC(O)(C(OC(=O)c4ccccc4)C21)C3(C)C (centres undefined) + C#Cc1c(F)ccc2cc(O)cc(-c3ncc4c(N5CC6CCC(C5)N6)nc(OCC56CCCN5CC(F)C6)nc4c3F)c12", "%", 8.41),
    ("C=CC(=O)N1CCN(c2nc(OCC3CCCN3C)nc3c(F)c(-c4nc(N)cc(C)c4C(F)(F)F)c(Cl)cc23)C(C)C1 (centres undefined) + C#Cc1c(F)ccc2cc(O)cc(-c3ncc4c(N5CC6CCC(C5)N6)nc(OCC56CCCN5CC(F)C6)nc4c3F)c12", "%", 8.52),
    ("CCN1CCN(Cc2ccc(Nc3ncc(F)c(-c4cc(F)c5nc(C)n(C(C)C)c5c4)n3)nc2)CC1 + C#Cc1c(F)ccc2cc(O)cc(-c3ncc4c(N5CC6CCC(C5)N6)nc(OCC56CCCN5CC(F)C6)nc4c3F)c12", "%", 16.4),
    ("Cc1nc(N2CCC3(CC2)COC(C)C3N)c(CO)nc1Sc1ccnc(N)c1Cl (centres undefined) + C#Cc1c(F)ccc2cc(O)cc(-c3ncc4c(N5CC6CCC(C5)N6)nc(OCC56CCCN5CC(F)C6)nc4c3F)c12", "%", 2.23),
    ("NC1c2ccccc2OC12CCN(c1cnc3c(N4CCCc5ncccc54)n[nH]c3n1)CC2 (centres undefined) + C#Cc1c(F)ccc2cc(O)cc(-c3ncc4c(N5CC6CCC(C5)N6)nc(OCC56CCCN5CC(F)C6)nc4c3F)c12", "%", 1.65),
]
